Biological target: Glucose-dependent insulinotropic receptor (Homo sapiens) (UniProt Q8TDV5)
Sequence (Q8TDV5 whole entry, looked up): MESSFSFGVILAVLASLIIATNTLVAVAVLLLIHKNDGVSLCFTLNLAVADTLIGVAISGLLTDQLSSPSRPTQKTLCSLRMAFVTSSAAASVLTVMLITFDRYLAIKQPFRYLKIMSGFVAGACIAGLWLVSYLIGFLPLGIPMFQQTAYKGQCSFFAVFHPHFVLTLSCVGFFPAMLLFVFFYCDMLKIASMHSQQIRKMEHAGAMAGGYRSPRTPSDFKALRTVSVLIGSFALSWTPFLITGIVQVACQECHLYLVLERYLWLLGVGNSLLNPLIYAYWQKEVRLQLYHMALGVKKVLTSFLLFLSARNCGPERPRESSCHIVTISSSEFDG
Test: off-target GPR119 activation – cell-based, PathHunter beta-arrestin, luminescence, set 2, counter-screen for GPR151 activator project, confirmation (AID 1508607);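 note: counterscreen in GPR119 cells for hits from a GPR151 activator screen; 0% = median of sample wells and 100% = wells given EA reagent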
Details: GPR119 PathHunter beta-arrestin cells, 90 min, at 11.2 µM, stronger effect = higher value
Among all 2,300 compounds or so, about 20 (0.9%) were called active. The sample holds actives, similar compounds and a random draw of the others, so the mix is not that of the screen.
Readout: activation (%)
Answers are plain numbers, in %.

Example entries and their recorded answers appear below.
# Molecule, activation [%]
records = [
    ("COCCN1C(=S)NC2c3cccc(OC)c3OC1(C)C2C(=O)OC (centres undefined)", -2.57),
    ("CCc1ccc(NC(=O)CN2CC(c3ccccc3)CC2=O)cc1 (centres undefined)", 2.2),
    ("CC[n+]1c(/C=C/C=C2\\N(C)c3ccccc3C2(C)C)n(-c2ccccc2)c2ccc(C)cc21", 2.58),
    ("CC[n+]1c(/C=C/C=C2\\N(C)c3ccccc3C2(C)C)n(-c2ccccc2)c2cc(Cl)ccc21", 4.85),
]

Please state activation for every molecule in the list that follows.
1. C[C@@H]1O[C@@H](O[C@H]2C[C@@H](O)[C@]3(CO)[C@H]4[C@H](O)C[C@]5(C)[C@@H](C6=CC(=O)OC6)CC[C@]5(O)[C@@H]4CC[C@]3(O)C2)[C@H](O)[C@H](O)[C@H]1O
2. Cc1cccc(C)c1-n1nnnc1C1(NCCc2c(C)[nH]c3ccccc23)CCCCC1
3. COc1cccc(C2N(c3ccccn3)C(=O)C3CCCN32)c1 (centres undefined)
4. CCn1c(/C=C/C=C2\N(C)c3ccccc3C2(C)C)[n+](Cc2ccccc2)c2ccccc21
5. O=c1c2ccccc2nc(/C=C/c2ccccc2)n1-c1cccc(C(F)(F)F)c1

Response:
1: 18.4; 2: -3.88; 3: -1.97; 4: 15.3; 5: 1.19

Cited source: PubChem BioAssay AID1508607
